The reported numbers originate from paper PMC9373486.

assay: %cytotoxicity reported with the TNF-α assay; format: cell-based, murine; conditions: mouse, RAW 264.7 cells, n = 3, read-out: [%cytotoxicity] at conc. 100 µg/mL (converted)

{"columns": ["substanceSmiles", "cytotoxicity at 100 µg/mL / %"],
 "data": [
  ["CC(=O)Nc1ccc(O)cc1", 59.2]
]}
